Items are presented alongside their recorded herbicidal effect rating, ECHORC.
Test system: Echinochloa oryzoides (Ard.) Fritsch.
runDescription: Preemergence weed control under flooded paddy conditions, ECHORC (Watergrass (Calif.)); note: meaning of each grade not given here
Type: in vivo
settings: 0.1250 kg/ha; preemergence, flooded paddy; rated three to four weeks after treatment
No unit in the answer, only the number.

# count of solved cases: 2
compound	herbicidal effect rating, ECHORC
CCc1ccc(-c2nsc3ccc(-n4c(=O)cc(C(F)(F)F)n(C)c4=O)cc23)cc1 [Example 5]	9.0
COc1cc(C)ccc1-c1nsc2ccc(-n3c(=O)cc(C(F)(F)F)n(C)c3=O)cc12 [Example 7]	9.0

Lab book: herbicidal effect rating, ECHORC of Cc1ccc(OC(C)C#N)c(-c2nsc3ccc(-n4c(=O)cc(C(F)(F)F)n(C)c4=O)cc23)c1 (stereo not shown) [Example 58] noted as 9.0

Lab book: herbicidal effect rating, ECHORC of Cc1ccc(OCC(=O)OCCN(C)C)c(-c2nsc3ccc(-n4c(=O)cc(C(F)(F)F)n(C)c4=O)cc23)c1 [Example 70] noted as 9.0

Lab book: herbicidal effect rating, ECHORC of COC(=O)COc1cc(C)c(C)cc1-c1nsc2ccc(-n3c(=O)cc(C(F)(F)F)n(C)c3=O)cc12 [Example 12] noted as 9.0

Lab book: herbicidal effect rating, ECHORC of Cc1ccc(OCC(=O)OCCCl)c(-c2nsc3ccc(-n4c(=O)cc(C(F)(F)F)n(C)c4=O)cc23)c1 [Example 71] noted as 8.5

Lab book: herbicidal effect rating, ECHORC of COC(=O)C(C)Oc1ccccc1Oc1noc2ccc(-n3c(=O)cc(C(F)(F)F)n(C)c3=O)cc12 (stereo not shown) [Example 47] noted as 3.5

---

Tested on: Oryza sativa, (L.) Tebonnet
runDescription: Rice tolerance to post-transplant applications under flooded paddy conditions (Example 187), ORYSAT (Rice, Tebonnet)
settings: 0.2500 kg/ha, rated three to four weeks after treatment
measurementType: herbicidal effect rating, ORYSAT (rice tolerance)
No unit in the answer, only the number.

# count of solved cases: 3
molecule	observed
Cc1ccc(OCC(=O)OC2CCCC2)c(-c2nsc3ccc(-n4c(=O)cc(C(F)(F)F)n(C)c4=O)cc23)c1	7.0
Cc1ccc(OCC(=O)OC(C)C(C)(C)C)c(-c2nsc3ccc(-n4c(=O)cc(C(F)(F)F)n(C)c4=O)cc23)c1 (centres unmarked)	1.0
Cc1ccc(OCC(=O)NS(C)(=O)=O)c(-c2nsc3ccc(-n4c(=O)cc(C(F)(F)F)n(C)c4=O)cc23)c1	9.0

Observed herbicidal effect rating, ORYSAT (rice tolerance) on Oryza sativa, (L.) Tebonnet, entry CCCCOCc1nsc2ccc(-n3c(=O)cc(C(F)(F)F)n(C)c3=O)cc12 , equals 7.0

---

Test system: Cyperus iria
runDescription: Preemergence weed control under flooded paddy conditions, CYPIR (Rice Flatsedge); note: meaning of each grade not given here
Format: in vivo
settings: Rate 0.0620 kg/ha; preemergence, flooded paddy; rated 3-4 weeks after treatment
measurementType: herbicidal effect rating, CYPIR
No unit in the answer, only the number.

# count of solved cases: 3
molecule	herbicidal effect rating, CYPIR
CCS(=O)(=O)NC(=O)COc1ccc(C)cc1-c1nsc2ccc(-n3c(=O)cc(C(F)(F)F)n(C)c3=O)cc12 [Example 554]	7.0
Cn1c(C(F)(F)F)cc(=O)n(-c2ccc3snc(-c4ccccc4OCC(N)=O)c3c2)c1=O [Example 563]	2.0
Cc1ccc(OCC(N)=O)c(-c2nsc3ccc(-n4c(=O)cc(C(F)(F)F)n(C)c4=O)cc23)c1 [Example 539]	2.0

Consider the record given below.
Lab book: herbicidal effect rating, CYPIR of Cc1ccc(OCC(=O)c2ccc(OC(F)F)cc2)c(-c2nsc3ccc(-n4c(=O)cc(C(F)(F)F)n(C)c4=O)cc23)c1 [Example 543] noted as 6.0
